Biological target: T1, RBFOX1 RRM RbFoxmut (Fox-RRM*) (Homo sapiens, UniProt Q9NWB1 109-208, R118D;E147R;N151S;E152T)
T1 sequence: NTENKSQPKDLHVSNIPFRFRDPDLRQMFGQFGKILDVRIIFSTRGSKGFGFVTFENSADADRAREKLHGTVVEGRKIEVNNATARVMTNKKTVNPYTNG
Assay: EMSA; HiTS-Eq, 1 nM pool, 10 min; buffer printed only for the single-RNA assays: 10 mM Tris pH 7.5, 150 mM NaCl, 3.4 mM EDTA, 0.001% NP-40, 30 C
Conditions: tags: His6 N-terminal (pET28a); label: 5' 32P
Over roughly 16,000 sequences, “ka relative to ugcaugu” has its median near 0.096; the highest 2% begin near 0.35. For the sample, the highest values were picked, then their nearest neighbours and some sequences at random.
READOUT LABEL: binding signal

binder="UGCCAUC (DNA:RNA) RNA: GGGAGACCGGAAUUCAGAUUGUCCUGCCAUCUUAAAUCCCGUCGUAGCCACCA DNA 1: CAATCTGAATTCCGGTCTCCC DNA 2: TGGTGGCTACGACGGGATT" measured_value="0.208 KA relative to UGCAUGU"
binder="CUGCAUG (DNA:RNA) RNA: GGGAGACCGGAAUUCAGAUUGUCCCUGCAUGUUAAAUCCCGUCGUAGCCACCA DNA 1: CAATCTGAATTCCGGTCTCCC DNA 2: TGGTGGCTACGACGGGATT" measured_value="1.34 KA relative to UGCAUGU"
